test: 16 h brain and plasma PK study after ip dosing; type: in vivo, CD1 mice; settings: CD1, mouse, plasma, ip, 5 mg/kg
observed property: half-life

Can you share its half-life? I mean this compound: C[C@H](Nc1c(-c2c(F)cc(OCCCN(C)C)cc2F)c(Cl)nc2ncnn12)C(F)(F)F
> 2 h

====

experiment: 16 h brain and plasma PK study after ip dosing; format: in vivo, CD1 mice; details: CD1, mouse, brain, ip, 5 mg/kg
observed property: half-life

Can you share its half-life? I mean this compound: C[C@H](Nc1c(-c2c(F)cc(OCCCN(C)C)cc2F)c(Cl)nc2ncnn12)C(F)(F)F
> 2 h
